Assay: chemical genetic growth profiling, strain panel (AID 1159580);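 further: tested at 20 µM; growth read once vehicle control cultures reached saturation at 30 °C; 1 = growth at the plate median or of vehicle wells; lower values mean less growth of the strain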
Details: S. cerevisiae deletion strains, growth OD, locus YDL074C, strain BRE1, stronger effect = lower value
About 2,000 (36%) of roughly 5,500 compounds were called active. Not shown: some 18% with an inconclusive outcome. The list shows a part of the results.
Please go through the items and note down their normalized growth.
Give your answer as a number; write no unit.

-- ask Any idea what normalized growth was measured for Cc1c(N(C)CS(=O)(=O)O)c(=O)n(-c2ccccc2)n1C ?
-- reply 1.06

-- ask What do we get for CC(=O)N[C@@H](CC(=O)O)C(=O)O ?
-- reply 1.01

-- ask What do we get for CCOC(=O)C1=C(C)NC(C)=C(C(=O)OC)C1c1cccc([N+](=O)[O-])c1 (stereo unspecified) ?
-- reply 0.988

-- ask What do we get for COc1cc(OC)cc(OC)c1 ?
-- reply 1.01

-- ask What do we get for COc1cc(OC)c(-c2c(OC)cc(OC)cc2OC)c(OC)c1 ?
-- reply 1.06

-- ask What do we get for COc1ccc2c(=O)c(CC(=O)O)coc2c1 ?
-- reply 1.05

-- ask What do we get for CCCCC/C=C\C/C=C\C/C=C\C/C=C\CCCC(=O)O ?
-- reply 0.916

-- ask What do we get for COc1cc(O)c(C(=O)O)c(O)c1 ?
-- reply 1.02

-- ask What do we get for C=C(C)c1cc2cc(C(C)=O)c(O)cc2o1 ?
-- reply 0.924

-- ask What do we get for Cn1nnnc1SCC1=C(C(=O)O)N2C(=O)C(NC(=O)C(OC=O)c3ccccc3)C2SC1 (stereo unspecified) ?
-- reply 1.02

-- ask What do we get for COC(=O)C[C@H]1C(C)(C)[C@@H](OC(C)=O)[C@@H]2CC3C4CC(=O)O[C@@H](c5ccoc5)[C@]4(C)CCC3[C@@]1(C)C2=O (stereo partly specified) ?
-- reply 0.985

* * *

Experiment: chemical genetic growth profiling, strain panel (AID 1159580);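 further: tested at 20 µM; growth read once vehicle control cultures reached saturation at 30 °C; 1 = growth at the plate median or of vehicle wells; lower values mean less growth of the strain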
Settings: S. cerevisiae deletion strains, growth OD, locus YOR136W, strain idh2, stronger effect = lower value
Out of some 5,500 compounds screened, about 2,000 (36%) were called active. Roughly 18% stayed inconclusive and do not appear here. Some of the results follow.
readout.name: normalized growth
Give your answer as a number; write no unit.

-- ask Any idea what normalized growth was measured for C/C=C(\C)C(=O)OC1[C@@H]2C=C3C4CC(=O)O[C@@H](c5ccoc5)[C@]4(C)CCC3[C@@](C)(C2=O)[C@@H](C(O)C(=O)OC)C1(C)C (some centres not stated) ?
-- reply 1.01

-- ask What do we get for COc1cc2c(cc1-c1coc3c4c(c(OC)cc3c1=O)OC(C)(C)C=C4)OCO2 ?
-- reply 0.98

-- ask What do we get for Nc1ncnc2c1ncn2[C@@H]1O[C@H](CO)[C@@H](O)[C@@H]1O ?
-- reply 1.03

-- ask What do we get for CC(C)(O)CC[C@@H](O)[C@](C)(O)C1CC[C@@]2(O)C3=CC(=O)C4C[C@@H](O)[C@@H](O)C[C@]4(C)C3CC[C@]12C (some centres not stated) ?
-- reply 1

-- ask What do we get for O=c1c(-c2ccc3c(c2)OCO3)coc2cc(O)ccc12 ?
-- reply 0.985

-- ask What do we get for Cn1c(=O)[nH]c(=O)c2[nH]cnc21 ?
-- reply 0.967

-- ask What do we get for Cn1nnnc1SCC1=C(C(=O)O)N2C(=O)C(NC(=O)C(OC=O)c3ccccc3)C2SC1 (configuration not stated) ?
-- reply 1.03

-- ask What do we get for Cn1c([N+](=O)[O-])cnc1COC(N)=O ?
-- reply 0.978

-- ask What do we get for CCCc1nc(C(C)(C)O)c(C(=O)OCc2oc(=O)oc2C)n1Cc1ccc(-c2ccccc2-c2nn[nH]n2)cc1 ?
-- reply 0.986

-- ask What do we get for OCCN1CCN(CCCN2c3ccccc3Sc3ccc(Cl)cc32)CC1 ?
-- reply 0.998

-- ask What do we get for CC(C)=CCc1c(O)cc2occ(-c3ccc4c(c3)OCO4)c(=O)c2c1O ?
-- reply 1.03

-- ask What do we get for Cc1cc(C)nc(NS(=O)(=O)c2ccc(N)cc2)n1 ?
-- reply 0.996

-- ask What do we get for C[C@]12CCC3C(CC[C@H]4CC(=O)CC[C@]34C)C1CCC2=O (some centres not stated) ?
-- reply 0.994

-- ask What do we get for CN1CCN(CCCN2c3ccccc3Sc3ccc(Cl)cc32)CC1 ?
-- reply 0.925

-- ask What do we get for CCCCC(=O)O[C@H]1CCC2C3CCc4cc(O)ccc4C3CC[C@@]21C (some centres not stated) ?
-- reply 1

-- ask What do we get for Cc1cc(O)c2c(c1O)C(=O)c1c(O)cc(C)c(O)c1C2=O ?
-- reply 1.01

-- ask What do we get for N#Cc1ccc2c(c1)N(CCCN1CCC(O)CC1)c1ccccc1S2 ?
-- reply 1.03

-- ask What do we get for O=C1OC(=O)C2C3CCC(O3)C12 (configuration not stated) ?
-- reply 0.964

-- ask What do we get for CCCCC(=O)N(Cc1ccc(-c2ccccc2-c2nn[nH]n2)cc1)[C@H](C(=O)O)C(C)C ?
-- reply 0.991

-- ask What do we get for C[C@]12CCC3c4ccc(O)cc4CCC3C1CC[C@@H]2OC(=O)CCC1CCCC1 (some centres not stated) ?
-- reply 0.991

-- ask What do we get for O=C1c2ccccc2C(=O)c2c1ccc(O)c2O ?
-- reply 0.433

-- ask What do we get for COc1cc(OC)cc(OC)c1 ?
-- reply 0.104

* * *

Please go through the items and note down their normalized growth.
Experiment: chemical genetic growth profiling, strain panel (AID 1159580);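 further: tested at 20 µM; growth read once vehicle control cultures reached saturation at 30 °C; 1 = growth at the plate median or of vehicle wells; lower values mean less growth of the strain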
Conditions: S. cerevisiae deletion strains, growth OD, locus YPL209C, strain IPL1, stronger effect = lower value
Among all 5,500 compounds or so, about 2,000 (36%) were called active. Another 18% or so got no clear call; they are omitted. Some of the results follow.
Give your answer as a number; write no unit.

-- ask Any idea what normalized growth was measured for CC1CCc2c(sc3ncnc(Sc4ccccc4)c23)C1 (stereo not given) ?
-- reply 0.982

-- ask What do we get for O=S(=O)(Nc1cc(-c2cccs2)nn1-c1ccc(I)cc1)c1cccc(F)c1 ?
-- reply 0.975

-- ask What do we get for O=C(c1ccc(Cl)cc1)N1CCN(c2ccc(C(F)(F)F)cn2)CC1 ?
-- reply 0.991

-- ask What do we get for N/C(=N/OC(=O)c1ccccc1Cl)c1ccc2nonc2c1 ?
-- reply 0.968

-- ask What do we get for CSC(SC)=C(C#N)C(=O)c1ccccc1Cl ?
-- reply 0.774

-- ask What do we get for Oc1ccc(-n2nnnc2SCc2ccc(OC(F)(F)F)cc2)cc1 ?
-- reply 0.977

-- ask What do we get for O=C(N/N=C\c1cc(Cl)cc(Cl)c1O)c1ccccc1Oc1ccccc1 ?
-- reply 0.982

-- ask What do we get for COC(=O)c1ccc(Oc2c(C(F)(F)F)oc3cc(O)ccc3c2=O)cc1 ?
-- reply 0.971

-- ask What do we get for FC(F)(F)c1ccc(C2Sc3ccccc3N=C3c4ccccc4CC32)cc1 (stereo not given) ?
-- reply 1.02

-- ask What do we get for CC(/C=C/c1ccccc1)=N/OC(=O)c1ccccc1Cl ?
-- reply 0.966

-- ask What do we get for CSc1sc(-c2ccn[nH]2)c(-c2ccccc2)c1C#N ?
-- reply 0.978

-- ask What do we get for Fc1ccc(Nc2nc(-c3ccc(F)c(F)c3)cs2)c(F)c1 ?
-- reply 0.0912

-- ask What do we get for O=C1CSC(=Nc2cc(Cl)cc(Cl)c2)N1Cc1cccnc1 ?
-- reply 0.991

-- ask What do we get for CCCCCc1ccc(S(=O)(=O)Nc2ncc(C)cc2Br)cc1 ?
-- reply 0.955

-- ask What do we get for Cc1nc([N+](=O)[O-])cn1CC(=O)c1ccc(Cl)cc1 ?
-- reply 0.984

-- ask What do we get for O=C(Nc1ccc(Cl)cc1)c1csc([N+](=O)[O-])c1 ?
-- reply 0.926

-- ask What do we get for CCCCCc1ccc(-c2nc(SCC(C)=O)n[nH]2)cc1 ?
-- reply 0.96

-- ask What do we get for N/C(=N/OC(=O)c1ccccc1Cl)c1cccc(CS(=O)(=O)c2ccc(Cl)cc2)c1 ?
-- reply 0.981

-- ask What do we get for CN(C)c1nc(=S)ss1 ?
-- reply 0.872

-- ask What do we get for Cc1c(NCN2C(=O)CCC2=O)cc2c(c1[N+](=O)[O-])C(C)(C)CC2(C)C ?
-- reply 0.957

-- ask What do we get for O=C(NNc1c(Cl)cccc1Cl)c1ccc([N+](=O)[O-])o1 ?
-- reply 0.964

-- ask What do we get for Cc1nn(Cc2cccc(C(=O)O/N=C(/N)c3ccc(Cl)cc3)c2)c(C)c1Br ?
-- reply 0.987

-- ask What do we get for Cc1oc(-c2ccc(Cl)cc2)cc1C(=O)N1CCN(c2ccc(C(F)(F)F)cn2)CC1 ?
-- reply 0.983

-- ask What do we get for O=C(OCc1ccc(Oc2ccc(Cl)cc2Cl)c([N+](=O)[O-])c1)c1ccc([N+](=O)[O-])o1 ?
-- reply 0.983

-- ask What do we get for CC(NC(=S)Nc1ccc(Oc2ccc(Cl)cc2)cc1)c1ccccc1 (stereo not given) ?
-- reply 0.967
